Source listed as patent US6291199A.

testedTarget: PDE IVC (Homo sapiens)
Construct: ion-exchange fraction), Sf9 insect cells (pDEU16 baculovirus)
Sequence (Q08493 107-712 R344Q/D701A limits assumed): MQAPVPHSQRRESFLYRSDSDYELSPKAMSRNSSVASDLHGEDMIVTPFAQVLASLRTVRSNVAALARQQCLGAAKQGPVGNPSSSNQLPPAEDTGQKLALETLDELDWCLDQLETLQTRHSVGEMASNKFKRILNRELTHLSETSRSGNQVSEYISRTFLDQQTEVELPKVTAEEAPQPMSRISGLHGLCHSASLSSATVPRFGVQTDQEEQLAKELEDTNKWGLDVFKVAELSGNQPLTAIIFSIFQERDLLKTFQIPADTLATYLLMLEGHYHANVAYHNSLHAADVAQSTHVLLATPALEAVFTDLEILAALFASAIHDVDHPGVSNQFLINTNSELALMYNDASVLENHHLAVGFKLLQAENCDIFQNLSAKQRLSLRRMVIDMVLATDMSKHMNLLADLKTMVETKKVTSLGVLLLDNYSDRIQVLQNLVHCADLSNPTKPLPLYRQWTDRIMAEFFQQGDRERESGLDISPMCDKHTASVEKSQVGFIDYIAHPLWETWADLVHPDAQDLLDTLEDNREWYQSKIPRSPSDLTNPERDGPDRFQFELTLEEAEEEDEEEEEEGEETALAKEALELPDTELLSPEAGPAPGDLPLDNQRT
testDetails: Inhibition of recombinant human PDE IVC (cAMP hydrolysis)
endpoint: pIC50
Numbers only, as −log10 of the molar value.

Q) Quick check: pIC50 of `CC(C)Cn1c(=O)n(C)c(=O)c2[nH]cnc21` ?
A) 5.66
